What Enzyme Activity Endpoint Assay (purified): IgG was measured for each of the following?
# experimental_target: pooled human IgG (human IgG1, 2, 3 and 4)

Query :: Note Enzyme Activity Endpoint Assay (purified): IgG for the protein shown: PRT-609 (protein) MQITSVWTKGVTPLTPEQFRYNNEDVIHAPYLAHQGWYDITKAFDRGDNLLCGAATAGNMLHWWFDQNKTEIEAYLSKHPEKQKIIFNNQELFDLKAAIDTKDSQTNSQLFNYFRDKAFPNLSARQGGVMPDLVLDMFINGYYLNVFKTQSTDVNRPYQDKDKRGGIFDAVFTRGDQTTLLTARHDLKNKGLNDISTIIKQELTEGRALALSHTYANVSISHVINLWGADFNAEGNLEAIYVTDSDADEKIGMKKYFVGINAHGHVAISAKKIEGENIGAQVLGLFTLSSGKDIWQKLSLEHHHHHH
Result :: 702 ng/µL

Query :: Please report Enzyme Activity Endpoint Assay (purified): IgG for the following protein: PRT-373 (protein) MSQTEDSESLQRLRDIEDFQAEKEKQNVVYTKWLDGVDVKDHDFRKIVDGNSAYYATPLLNGRGWYDINKDFNRDNDKCAAAVAANMFHYWLDRNRDNVDRFLRQNPEKHGIIELPDGQLKLSDFLNTYESDDGYRDKSKLFDFISENFNGPVWTDKLLDNYINGYAYNSKYGRTIEDSTKNTSKINFFKEVFNEKILTNNHSIRNQNEFSVLLIEALYTGKAIGLSYGPAGLRHGLGHIISVWGADLDADGNVVAIYVTDSDDKKLTIGDERVGLKRYKISTDDEGRLRLTAYEETHNTGGQVRGLWTLDTGKQAWADYFDKTEQTGTDQAEQ
Result :: 38 ng/µL

Query :: Using known records, supply Enzyme Activity Endpoint Assay (purified): IgG for PRT-414 (protein) MTITSVWTKGVTPPTPEDFRYNNEDVLHAPYVANQGWYDITKTFDGKDNLLCGAATAGNMLHWWFDQNKEEIERYLKKHPEKQKIIFGNQELFDVKAAIDTKDSQTNSKLFNYFRDKAFPNLSARQLGVMPDLVLDMFINGYYLNLGKTQSTDVNRPYQDKDKRGGIFDAVFTRGDQTTLLTARHDLKNKGLNEISDLIKQELTEGKALALSHTYANVRINHVINLWGADFDAEGNLIAIYVTDSDANASIGMKKYFVGVNANGKVAISAKKIEGDNIGAQVLGLFTLSTGQDIWQKLS
Result :: 77 ng/µL

Query :: For the protein PRT-641 (protein) MQITSVWTKGVTPLTPEQFRYNNEDVIHAPYLAHQGWYDITKTMNGKDDLLCGAATAGNMLHWWFDQNKTEIEAYLSKHPEKQKIIFNNQELFDLKAAIDTKDSQTNSQLFNYFRDKAFPNLSARQRGVMPDLVLDMFINGYYLNVFKTQSTDVNRPYQDKDKRGGIFDAVFTRGDQTTLLTARHDLKNKGLNDISTIIKQELTEGRALALSHTYANVSISHVINLWGADFNAEGNLEAIYVTDSDARENIGMKKYFVGINAHGHVAISAKKIEGENIGAQVLGLFTLSSGKDIWQKLSLEHHHHHH , report Enzyme Activity Endpoint Assay (purified): IgG.
Result :: 0 ng/µL

Provenance of the data: patent US20250027068
